Assay endpoint: melting point

// worked examples, melting point included
Compound	melting point
Cc1c(C(=O)N(CC(=O)O)c2ccc(OCC(C)(C)C)c(C#N)c2)cnn1-c1ccc(F)cc1	105 to 110 °C
COCCN1CCc2ccc(OC)c(Nc3ncc(Cl)c(Nc4ccc(N5CCOCC5)cc4OC)n3)c2CC1	68 to 80 °C

Data request: Can you look up the measured melting point of CN1CCN(c2c(F)c(NCc3ccccc3)c3nc(CC(N)=O)n(C4CC4)c3c2F)CC1 for me?
Data returned: 157 to 159 °C

Data request: Entry C[C@@H]1[C@H](NC(=O)C(=O)c2csc(N)n2)C(=O)N1S(=O)(=O)O : reported melting point = ?
Data returned: > 300 °C

---

Assay endpoint: melting point

Compound	melting point
CN(C)CC1(C2(O)CCCCC2)Cc2cc3c(cc21)N(C)CC3 (stereo not drawn)	121 to 124 °C
CS(=O)(=O)OCCC1c2ccccc2C(=O)N1c1ccccc1 (stereo not drawn)	100 to 101 °C
Cc1ccc(S(=O)(=O)OC(C)(c2ccccc2)C(F)(F)F)cc1 (stereo not drawn)	102 °C
O=c1oc(-c2ccccc2F)nc2c(Cl)ccc(Cl)c12	140 °C
O=S(=O)(Cl)C=Cc1ccc(Cl)c(Cl)c1	91 to 96 °C

Data request: Any idea what its melting point is? The compound is CCCc1ccc(-c2ccc3c(c2)C=C(C(=O)OC)CCS3(=O)=O)cc1
Data returned: 155 to 156 °C

Data request: Query (compound): Fc1ccc(-c2ncn(CC3CC3)c2-c2ccncc2)cc1 ; field requested: melting point
Data returned: 162 °C

Data request: # input compound: N=C(N)NC(=O)c1cn(-c2ccnc3ccccc23)c2ncccc12 ; wanted: its melting point
Data returned: 164 °C

Data request: Please report the recorded melting point for C=C(c1ccc(Cl)cc1)c1ccc(NC(=O)OC(C)(C)C)c(C)c1 .
Data returned: 102 to 104 °C

Data request: Requested read-out: melting point. Entry: COC(=O)c1ccccc1Oc1ccccc1[N+](=O)[O-]
Data returned: 49 to 50 °C

Data request: // lookup melting point for CCCCC[C@@H](CNC(=O)Nc1cccc2c1OC(C)(C)C2)c1cccc2c1OCO2
Data returned: 161 to 162 °C

Data request: Bench note: what melting point did Cc1cccc(N2C(=S)SCC2O)n1 (stereo not drawn) show?
Data returned: 128 °C

Data request: Recorded melting point of Cc1cc(CCCCCOc2c(C)cc(-c3cn(C)nn3)cc2C)on1 , please.
Data returned: 117 to 118 °C

---

A collection of compounds and their measured melting point

Compound	melting point
CCCCc1oc2ccccc2c1-c1ncc(-c2ccc3c(Br)c(O)ccc3c2)o1	172 to 174 °C
COC(=O)CCCCCCC(C(=O)OC)S(C)(=O)=O (stereo not given)	47 to 48 °C
CCCCCCCCCCc1ccc(NC(=O)c2cnc(C(=O)NCC(=O)OCC)c(OC)c2)cc1	155 to 157 °C
CC1(C)CC(OC(=O)CCCCCCCCC(=O)OC2CC(C)(C)N(OC3CCCCC3)C(C)(C)C2)CC(C)(C)N1OC1CCCCC1	56 to 59 °C
Cc1ccccc1-c1nc(-c2cccc(Cl)c2)n(C)n1	86 to 88 °C
CNC(=C[N+](=O)[O-])NCCCCCCCCCCCCN	123 to 125 °C
COc1cc(-c2cccs2)cc(OC)c1C=O	168 to 170 °C
O=C(Nc1ccc(S(=O)(=O)c2ccccc2)cc1)N[C@@H](Cc1ccc(NC(=O)c2c(Cl)cccc2Cl)cc1)C(=O)O	222 °C
O=C(O)C1=C(c2ccccc2)c2ccccc2CS1	155 to 156 °C

Now, please, on to the next compound.
Data request: Tell me the measured melting point of COc1ccc(-c2cc(C)c(C(=O)NCCCCc3cccnc3)c(C)c2)cc1OC , please.
Data returned: 117 to 119 °C
